median log2 fold change values, listed per item
Molecular target: GABARAP, O95166
Sequence (O95166 whole entry, the tested form may be a part): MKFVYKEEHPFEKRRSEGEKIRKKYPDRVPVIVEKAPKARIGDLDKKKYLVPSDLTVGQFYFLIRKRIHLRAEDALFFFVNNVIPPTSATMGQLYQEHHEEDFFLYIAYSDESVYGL
Assay: median log2 fold change of GCK-ALFA target abundance (FLAG IP / Myc IP barcode read proportion) (log2 ratio); each designed protein is fused to an ALFA-tag nanobody in HEK293 cells to bring the named protein to FLAG-tagged glucokinase (GCK); Myc marks an untargeted standard; higher = target protein stabilised (more abundant)
Conditions: target protein: 3xFLAG-MCP-GCK-ALFA reporter; HEK293 landing pad (RPLP)
The full ranking holds about 4,500 sequences; the median of “median log2 fold change of GCK-ALFA target abundance (FLAG IP / Myc IP barcode read proportion)” is about 0.078, and the lowest 2% start at about -0.6. Only a selection was taken, and the lowest values are over-represented in it overall.
Reported endpoint: median log2 fold change

{"Binder": "GBRAP_52_5905 (protein) MRARLRADLEEIIAAVRAGDLEAARAKARELAETYDDEELELAAEELAALVLEAPREDLPAWWRTAEIIAEALEEAGRDEVLADLVLSRTAAAIHEVLQR", "Val": -0.658}
{"Binder": "GBRAP_137_3640 (protein) MKVTIRVERHEDLVEITITVDDPEKAEEVAELITDLAVAHGALAISVEIKEDGTLEAVIWVPVERAEALIAAIVDALQSKFGATVTVEDLDTGEVRTYTP", "Val": -0.0441}
{"Binder": "GBRAP_52_6260 (protein) MRERLRALVEEILELVKAGRLEEARALATELAETFNEEELEIFIEEAAELARRSSKEEVEDLIRMAELVAEALEEAGRPEELVSLFEARVYGAIYETEKR", "Val": -0.0461}
{"Binder": "GBRAP_78_6625 (protein) EIKKLLEKALKKVEEAAKLATKIPSEEGIEILDHLIDAFEYIEEAIEEGGDLEKLEKALKHLEEALKEIEKLNNPELEELKKLVKEAIKLLKKAIELKKK", "Val": 0.283}
